System: cGAMP mAb6
procedureDetails: competitive FP immunoassay, cGAMP mAb6 with cGAMP-Atto 633 tracer
Format: binding, mouse
condition: FP competition curves, FIG. 8E; ATP and GTP at more than 10^4-fold excess over half-maximal cGAMP concentration
readoutLabel: binding to mAb6

molecule	studyTarget	dataValue
Nc1nc2c(ncn2[C@@H]2O[C@@H]3COP(=O)(O)O[C@H]3[C@H]2O)c(=O)[nH]1 [cGMP]	cGAMP mAb6	lack of binding
Nc1ncnc2c1ncn2[C@@H]1O[C@H](COP(=O)(O)OP(=O)(O)OP(=O)(O)O)[C@@H](O)[C@H]1O [ATP]	cGAMP mAb6	no detectable binding
Nc1ncnc2c1ncn2[C@@H]1O[C@H](COP(=O)(O)OP(=O)(O)O)[C@@H](O)[C@H]1O [ADP]	cGAMP mAb6	lack of binding
Nc1nc2c(ncn2[C@@H]2O[C@H](COP(=O)(O)OP(=O)(O)OP(=O)(O)O)[C@@H](O)[C@H]2O)c(=O)[nH]1 [GTP]	cGAMP mAb6	no detectable binding

---

studyTarget: full length human cGAS (Homo sapiens)
Sequence (Q8N884 whole entry): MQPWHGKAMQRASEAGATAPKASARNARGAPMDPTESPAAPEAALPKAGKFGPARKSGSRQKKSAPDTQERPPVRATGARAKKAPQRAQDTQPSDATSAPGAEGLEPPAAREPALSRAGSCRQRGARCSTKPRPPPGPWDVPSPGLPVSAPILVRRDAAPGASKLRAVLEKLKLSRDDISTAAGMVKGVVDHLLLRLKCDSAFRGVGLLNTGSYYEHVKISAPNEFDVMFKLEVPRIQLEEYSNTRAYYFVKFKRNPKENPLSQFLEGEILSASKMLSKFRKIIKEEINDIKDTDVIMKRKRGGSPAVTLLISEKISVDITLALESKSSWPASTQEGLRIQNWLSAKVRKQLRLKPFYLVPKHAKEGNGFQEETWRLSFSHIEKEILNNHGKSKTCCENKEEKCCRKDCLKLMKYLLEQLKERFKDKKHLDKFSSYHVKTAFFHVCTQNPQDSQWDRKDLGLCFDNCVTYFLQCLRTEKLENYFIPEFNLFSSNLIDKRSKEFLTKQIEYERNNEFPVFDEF
procedureDetails: cGAS enzyme assay with cGAMP FP detection
Format: biochemical
Parameters: Assays using highly purified, full length human cGAS were performed; 6xHis; made in house; host or cells: E. coli BL21 DE3 (Rosetta DE3, Novagen), T7 expression vector
condition: both nucleotides combined (titrated simultaneously); read-out: half maximal concentration of ATP and GTP for cGAS activity
pEC50: −log10 of the molar value.
readoutLabel: pEC50

> print(dat)
                               smilesstring  datavalue
1  Nc1nc2c(ncn2[C@@H]2O[C@H](COP(=O)(O)OP(=O)(O)OP(=O)(O)O)[C@@H](O)[C@H]2O)c(=O)[nH]1       4.10
2  Nc1ncnc2c1ncn2[C@@H]1O[C@H](COP(=O)(O)OP(=O)(O)OP(=O)(O)O)[C@@H](O)[C@H]1O       4.10
